- assay_info: Solubility in water by spectrophotometry
- Type: physicochemical
measurement_type: log10(solubility) (log10 of the value in µg/mL)
Field: value | Transform: log10 | Quantity: solubility | Unit: µg/mL

In the examples that follow, each entry is paired with its recorded log10(solubility).
compound	log10(solubility)
COS(=O)(=O)[O-].C[N+](C)(C)CCNC(=O)c1ccc2c(c1)/C(=C1/Nc3ccccc3C1=O)C(=O)N2	4.72
O=C1Nc2ccc(C(=O)NCCO)cc2/C1=C1/Nc2ccccc2/C1=N\O	2.25
O=C1Nc2ccc(C(=O)N3CCNCC3)cc2/C1=C1/Nc2ccccc2C1=O	0.62
O=C1Nc2ccc(C(=O)NC[C@H](O)[C@@H](O)[C@H](O)[C@H](O)CO)cc2/C1=C1/Nc2ccccc2C1=O	1.33
CN(CC[N+](C)(C)C)C(=O)c1ccc2c(c1)/C(=C1/Nc3ccccc3C1=O)C(=O)N2.[I-]	3.20
CN(C)CCNC(=O)c1ccc2c(c1)/C(=C1/Nc3ccccc3C1=O)C(=O)N2	1.11

# log10(solubility) lookup, item `O=C1Nc2ccc(C(=O)Nc3cccnc3)cc2/C1=C1/Nc2ccccc2C1=O`
1.74

# log10(solubility) lookup, item `CN1CCN(c2ccc(NC(=O)c3ccc4c(c3)/C(=C3/Nc5ccccc5/C3=N\O)C(=O)N4)cc2)CC1`
3.20

# log10(solubility) lookup, item `CN(C)c1ccc(NC(=O)c2ccc3c(c2)/C(=C2/Nc4ccccc4C2=O)C(=O)N3)cc1`
2.76

# log10(solubility) lookup, item `CN1CCN(C(=O)c2ccc3c(c2)/C(=C2/Nc4ccccc4C2=O)C(=O)N3)CC1`
3.00

# log10(solubility) lookup, item `O=C1Nc2ccc(C(=O)N(CCO)CCO)cc2/C1=C1/Nc2ccccc2/C1=N\O`
2.72

# log10(solubility) lookup, item `CN(C)CCN(C)C(=O)c1ccc2c(c1)/C(=C1/Nc3ccccc3/C1=N\O)C(=O)N2`
3.81

# log10(solubility) lookup, item O=C1Nc2ccc(C(=O)N(CCO)CCO)cc2/C1=C1/Nc2ccccc2/C1=N\OCC(O)CO (centres undefined)
1.32
